All figures here come from ChEMBL document CHEMBL4385604.

This listing pairs molecules with measured pIC50.
# Test system: BaF3
# experiment.description: cells
# conditions: Mus musculus, BaF3, 72 h
# Description: Antiproliferative activity against mouse BAF3 cells harboring FLT3-ITD-F691L mutant measured after 72 hrs by MTT assay
pIC50: −log10 of the molar value.
parameter.measured: pIC50

CC(C)(C)c1cc(NC(=O)Nc2ccc(-c3cn(CC#N)c4ncnc(N)c34)cc2)no1 :: 8.44
CCOCCn1cc(-c2ccc(NC(=O)Nc3cc(C(C)(C)C)on3)cc2)c2c(N)ncnc21 :: 7.01
C=CCCn1cc(-c2ccc(NC(=O)Nc3cc(C(C)(C)C)on3)c(F)c2)c2c(N)ncnc21 :: 7.30

###

# System: RS4-11
# experiment.description: Antiproliferative activity against human RS4:11 cells harboring wild-type FLT3 measured after 72 hrs by MTT assay
# Assay type: functional, cell-based
# conditions: RS4-11, 72 h
Listed below: IC50 values for each entry.
parameter.measured: IC50

C=CCCCn1cc(-c2ccc(NC(=O)Nc3cc(C(C)(C)C)on3)cc2)c2c(N)ncnc21 :: > 1 µM
C=CCn1cc(-c2ccc(NC(=O)Nc3cc(C(C)(C)C)on3)cc2)c2c(N)ncnc21 :: > 1 µM
CC(C)n1cc(-c2ccc(NC(=O)Nc3cc(C(C)(C)C)on3)cc2)c2c(N)ncnc21 :: > 1 µM
